Kindly supply the reported Activity values for the records listed here.
Target: UniProt P30542
Sequence (P30542 whole entry): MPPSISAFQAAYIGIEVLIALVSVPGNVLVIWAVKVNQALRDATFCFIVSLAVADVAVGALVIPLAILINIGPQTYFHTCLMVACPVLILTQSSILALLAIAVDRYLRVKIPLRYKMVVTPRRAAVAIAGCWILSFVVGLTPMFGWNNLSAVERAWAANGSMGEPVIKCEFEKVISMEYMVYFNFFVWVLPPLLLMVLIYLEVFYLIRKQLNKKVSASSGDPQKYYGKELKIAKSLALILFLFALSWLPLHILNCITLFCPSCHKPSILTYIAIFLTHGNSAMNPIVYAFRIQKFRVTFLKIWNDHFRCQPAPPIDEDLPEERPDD
Assay: Allosteric enhancer activity at recombinant human A1 adenosine receptor expressed in CHO cells assessed as change in forskolin-induced cAMP production at 0.01 uM after 6 mins by radioimmunoassay
Type: functional, cell-based
All answers are understood in %, so give the number only.

Task: Output reported Activity of the molecule Nc1scc(CN2CCN(c3ccc(OC(F)(F)F)cc3)CC2)c1C(=O)c1ccc(Cl)cc1 on UniProt P30542.
Output: 0

Task: Output reported Activity of the molecule Nc1scc(CN2CCC(c3ccc(Cl)cc3)CC2)c1C(=O)c1ccc(Cl)cc1 on UniProt P30542.
Output: 0

Task: Output reported Activity of the molecule Nc1scc(CN2CCN(c3cc(F)cc(F)c3)CC2)c1C(=O)c1ccc(Cl)cc1 on UniProt P30542.
Output: -13

Task: Output reported Activity of the molecule Nc1scc(CN2CCN(c3cccnc3)CC2)c1C(=O)c1ccc(Cl)cc1 on UniProt P30542.
Output: 3.2

Task: Output reported Activity of the molecule Nc1scc(CN2CCN(c3ccc(F)c(F)c3)CC2)c1C(=O)c1ccc(Cl)cc1 on UniProt P30542.
Output: -3.2

Task: Output reported Activity of the molecule Nc1scc(CN2CCN(CC(=O)c3ccc(Cl)cc3)CC2)c1C(=O)c1ccc(Cl)cc1 on UniProt P30542.
Output: -5

Task: Output reported Activity of the molecule Nc1scc(CN2CCN(c3ccc(Cl)cc3Cl)CC2)c1C(=O)c1ccc(Cl)cc1 on UniProt P30542.
Output: 2
